TARGET: T1, FLAG-tagged mouse Ang2 (mouse, UniProt O35608 19-496)
T1 construct: N-terminally FLAG-tagged, conditioned medium of HEK293T cells; also called mAng2; FLAG-mAng2
T1 sequence: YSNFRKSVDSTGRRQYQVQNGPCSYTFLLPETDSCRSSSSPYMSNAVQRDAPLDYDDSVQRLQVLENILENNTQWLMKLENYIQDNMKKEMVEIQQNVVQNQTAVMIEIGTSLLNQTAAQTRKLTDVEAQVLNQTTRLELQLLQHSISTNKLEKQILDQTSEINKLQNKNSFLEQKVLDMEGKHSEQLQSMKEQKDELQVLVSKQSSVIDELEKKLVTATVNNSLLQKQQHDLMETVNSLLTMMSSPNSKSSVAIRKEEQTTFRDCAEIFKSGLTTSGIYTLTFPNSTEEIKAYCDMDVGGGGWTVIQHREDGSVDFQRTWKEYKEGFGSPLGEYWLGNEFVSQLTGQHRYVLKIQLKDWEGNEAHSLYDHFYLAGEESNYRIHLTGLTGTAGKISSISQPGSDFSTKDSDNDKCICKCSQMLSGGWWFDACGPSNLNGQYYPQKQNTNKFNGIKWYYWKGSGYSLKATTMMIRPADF
TEST_PROTOCOL: competition ELISA: FLAG-mAng2 binding to coated mTie2-Fc
pIC50: −log10 of the molar value.
Could you label it Criterion met if measured pIC50 is 8 or higher, and Criterion not met otherwise?

BINDER: VHH 00048 (VHH, not shown: small tags and cut ends) VHH: EVQLVESGGGLVQAGGSLRLSCAASGFTLDDYAIGWFRQAPGKEREGVSSIRDSDGSTYYADSVKGRFTISSDNDKNTVYLQMNSLKPEDTAVYYCAAVPAGRLRFGEQWYPLYEYDAWGQGTLVTVSS
ASSIGNED_CATEGORY: Criterion met
--
BINDER: VHH 00025 (VHH, not shown: small tags and cut ends) VHH: EVQLVESGGGLVQAGGSLRLSCAASGFTLDDYAIGWFRQAPGKEREGVSTIRDSDGSTYYADSVKGRFTISSDNDKNTVYLQMNSLKPEDTAVYYCAAVPAGRLRFGEQWYPLYEYDAWGQGTLVTVSS
ASSIGNED_CATEGORY: Criterion met
--
BINDER: VHH 00054 (VHH, not shown: small tags and cut ends) VHH: EVQLVESGGGLVQPGGSLRLSCAASGFTLDDYAIGWFRQAPGKEREGVSSIRDNDGSTYYADSVKGRFTISRDNSKNTVYLQMNSLRPEDTAVYYCAAVPAGRLRFGEQWYPLYEYDAWGQGTLVTVSS
ASSIGNED_CATEGORY: Criterion not met
--
BINDER: VHH 00052 (VHH, not shown: small tags and cut ends) VHH: EVQLVESGGGLVQPGGSLRLSCAASGFTLDDYAIGWFRQAPGKEREGVSSIRDNDGSTYYADSVKGRFTISSDNDKNTVYLQMNSLRPEDTAVYYCAAVPAGRLRFGEQWYPLYEYDAWGQGTLVTVSS
ASSIGNED_CATEGORY: Criterion met
--
BINDER: VHH 28D10 (VHH, not shown: small tags and cut ends, Parental llama VHH; also called 028D10) VHH: EVQLVESGGGLVQAGGSLRLSCAASGFTLDDYAIGWFRQAPGKEREGVSCIRDSDGSTYYADSVKGRFTISSDNDKNTVYLQMNSLKPEDTAVYYCAAVPAGRLRFGEQWYPLYEYDAWGQGTQVTVSS
ASSIGNED_CATEGORY: Criterion met
--
BINDER: VHH 00041 (VHH, not shown: small tags and cut ends) VHH: EVQLVESGGGLVQPGGSLRLSCAASGFTLDDYAIGWFRQAPGKEREGVSSIRDNDGSTYYADSVKGRFTISSDNAKNTVYLQMNSLRPEDTAVYYCAAVPAGRLRFGEQWYPLYEYDAWGQGTLVTVSS
ASSIGNED_CATEGORY: Criterion met
--
BINDER: VHH 00043 (VHH, not shown: small tags and cut ends) VHH: EVQLVESGGGLVQPGGSLRLSCAASGFTLDDYAIGWFRQAPGKEREGVSSIRDNDGSTYYADSVKGRFTISRDNAKNTVYLQMNSLRPEDTAVYYCAAVPAGRLRFGEQWYPLYEYDAWGQGTLVTVSS
ASSIGNED_CATEGORY: Criterion not met
--
BINDER: VHH 00026 (VHH, not shown: small tags and cut ends) VHH: EVQLVESGGGLVQAGGSLRLSCAASGFTLDDYAIGWFRQAPGKEREGVSAIRDSDGSTYYADSVKGRFTISSDNDKNTVYLQMNSLKPEDTAVYYCAAVPAGRLRFGEQWYPLYEYDAWGQGTLVTVSS
ASSIGNED_CATEGORY: Criterion met
